Reference source for all entries: paper PMC7772935

# EXPERIMENT: R-CNE plasma concentrations after oral administration to lambs
# Type: in vivo
# CONDITION_SET: Corriedale and Texel crossbreed, sheep, 100 mg/kg oral, four doses every 24 h, after each dose
# Experimental: All the animals had free access to water. Lambs were assigned to three experimental groups. R-CNE analysis was performed according the technique described by Tao and Pereira ([23]), with modifications. Aliquots of plasma (0.25 mL) were mixed with acetonitrile, agitated and centrifuged. Supernatants were injected into the HPLC system fitted with a Kromasil C18 column. […] R-CNE was analyzed using a UV detector (Shimadzu, SPD-10A). Data are expressed as mean ± standard deviation (SD). […]
REPORTED_PROPERTY: Cmax

Given the compound C=C(C)C1CC=C(C)C(=O)C1 (stereo not shown) [R-CNE, 5-isopropenyl-2-methyl-2-cyclohexenone] , what is its reported Cmax?
1790 ng/mL
